GI50 for assorted molecules
- Test system: COLO 205
- protocol: NCI tumour cell line growth inhibition, 48 h
Calls of active or inactive are those of the source. No stated cut-off is given here; in the data, active = GI50 up to about 1.1 µM and inactive = higher.
parameter_measured: GI50

> print(dat)
                                   molecule  target.or.test.system               result
1  N#CCC(=O)N/N=C1/C(=O)NC(=O)C(=O)C1c1nc2ccccc2s1 (centres undefined)               COLO 205  > 100 µM (inactive)
2  COC1=CC(=O)c2c(O)c3c(c(O)c2C1=O)CC(C)(O)OC3 (centres undefined)               COLO 205    0.897 µM (active)
3  CC(=O)OCCC1c2ccccc2-n2nc(-c3ccccc3)c(O)c21 (centres undefined)               COLO 205   20.1 µM (inactive)
4  CCO/C=C/C(C)C1(C(=O)OCC)CCCCC1=O (centres undefined)               COLO 205  > 100 µM (inactive)

----------
- Test system: SK-MEL-28
- protocol: NCI tumour cell line growth inhibition, 48 h
Active and inactive are the calls of the source. Rule as the data show it: active = GI50 up to about 1.1 µM and inactive = higher.
parameter_measured: GI50

molecule	parameter_measured	result
O=C1CNc2cc(N3CCCCC3)ccc2N1	GI50	> 100 µM (inactive)
CCOC(=O)/C=C/c1c(C)[nH]c(=O)[nH]c1=O	GI50	> 250 µM (inactive)
COc1nc2c(nc(N)n2C2OCC(O)C(O)C2O)c(=O)n1C (stereo not given)	GI50	> 100 µM (inactive)
CC1=NN(C(=O)Cc2ccccc2)C(=O)/C1=C\c1ccccc1O	GI50	> 100 µM (inactive)
CC1=CC(C)C(O)C(C)/C=C\C(O)C/C=C(/C)C(=O)CC(O)C(C)\C=C/C=C\C=C/C(=O)NC2=C(O)C(=O)c3c(cc(C)c(O)c3C1=O)C2=O (stereo not given)	GI50	> 100 µM (inactive)
C/C(=C\COP(=O)(O)OP(=O)(O)O)CC/C=C(\C)CNc1ccc([N+](=O)[O-])cc1	GI50	> 100 µM (inactive)
CCN(CC)CCn1ccc(=O)c2cc3c(=O)ccn(CCN(CC)CC)c3c(C)c21	GI50	19.9 µM (inactive)
CCNc1cnc2c(n1)c(=O)n(C)c(=O)n2C	GI50	> 100 µM (inactive)
Clc1ccc(COC(Cn2ccnc2)c2ccc(Cl)cc2Cl)cc1 (stereo not given)	GI50	17.2 µM (inactive)
Cc1nnc2sc(-c3ccc(N)cc3)nn12	GI50	> 100 µM (inactive)

----------
- Tested on: A498
- protocol: NCI tumour cell line growth inhibition, 48 h
Activity calls are given as the source filed them. Cut-off read from the data, not from the text of the source: active = GI50 up to about 1.1 µM and inactive = higher.
parameter_measured: GI50

> print(dat)
                                   molecule               result
1  CCN(CC)C(=S)N/N=C(/C)c1cccc(/C(C)=N\NC(=S)N(CC)CC)n1   1.89 µM (inactive)
2  CCOc1ccccc1N1C(=O)C(=O)C(c2nc3ccccc3s2)C(=O)C1=O   16.6 µM (inactive)
3  [N-]=[N+]=Nc1nnc(CCCCc2nnc(N=[N+]=[N-])o2)o1  > 100 µM (inactive)
4  O=C(Nc1ccc(Br)cc1)C(=O)C(C(=O)c1ccc(Cl)c(Cl)c1)C1OC(=O)c2ccccc21 (configuration not stated)   16.2 µM (inactive)
5           CCc1n[nH]c(=O)n1-c1ccc2ccccc2c1  > 100 µM (inactive)
6    CSc1ncc2c(n1)sc1c(=O)n(-c3ccccc3)cnc12  > 100 µM (inactive)
7  O=C1N/C(=N/N=C/c2c[nH]c3ccccc23)N/C1=C\c1cccs1   16.2 µM (inactive)
